# System: P12-Ichikawa
# assay-remarks: cell viability relative to DMSO control; higher = less cytotoxic
# measurement-parameters: HPLM + 10% dialyzed FBS; 48 h; 15.4 µM
Exercise: for every item that follows, state its recorded cell viability.
Please report the result as a number followed by the unit.

Worked cases, cell viability given:
[
  {
    "molecule": "COc1ccc(/C=C/C(=O)Nc2ccccc2C(=O)O)cc1OC",
    "cell viability": "99.3%"
  },
  {
    "molecule": "CCOC(=O)c1c(CSc2ccccc2)n(C)c2cc(Br)c(O)c(CN(C)C)c12",
    "cell viability": "115%"
  },
  {
    "molecule": "Nc1cc(N2CCCCC2)nc(N)[n+]1[O-]",
    "cell viability": "119%"
  },
  {
    "molecule": "c1ccc2c(CN3CCNCC3)cccc2c1",
    "cell viability": "111%"
  },
  {
    "molecule": "C[C@H](NC(=O)[C@@H](O)c1cc(F)cc(F)c1)C(=O)N[C@@H]1C(=O)N(C)c2ccccc2-c2ccccc21",
    "cell viability": "102%"
  }
]

Would you be so kind as to report cell viability for each listed record?
1. Cc1ccc(C(=O)Nc2ccc([S+](=O)([O-])O)c3cc([S+](=O)([O-])O)cc([S+](=O)([O-])O)c23)cc1NC(=O)c1cccc(NC(=O)Nc2cccc(C(=O)Nc3cc(C(=O)Nc4ccc([S+](=O)([O-])O)c5cc([S+](=O)([O-])O)cc([S+](=O)([O-])O)c45)ccc3C)c2)c1
2. C[C@@H](Cc1cc2c(c(C(N)=O)c1)N(CCCO)CC2)NCCOc1ccccc1OCC(F)(F)F
3. N#CC1(c2cccc(C(=O)Nc3cc(Oc4ccc5nc(NC(=O)C6CC6)sc5n4)ccc3F)c2Cl)CC1
4. Clc1ccc(C(c2ccc(Cl)cc2)[n+]2ccn(CC(OCc3ccc(Cl)cc3Cl)c3ccc(Cl)cc3Cl)c2)cc1 (stereo unspecified)
5. NCCOc1cc(C(=O)Nc2cc(OCCN)c3ccccc3n2)nc(C(=O)Nc2cc(OCCN)c3ccccc3n2)c1
6. Nc1nccc(-c2ccc3noc(-c4ccc(Cl)cc4)c3c2)n1
7. CCn1c(C(=O)N(C2CC2)C2CC2)cc2c3c(ncn3C)c(Nc3cc(C)n(C)n3)nc21

### Response
55.2%
118%
29%
70.6%
21.5%
115%
107%

Would you be so kind as to report cell viability for each listed record?
1. Cc1nnc(C(=O)NC(C)(C)c2nc(C(=O)NCc3ccc(F)cc3)c(O)c(=O)n2C)o1
2. CN1CCN(CC1)C2=CC3=C([NH]C(=N3)C/4=C(\N)C5=C(F)C=CC=C5NC4=O)C=C2

### Response
1. 102%
2. 65.5%

Would you be so kind as to report cell viability for each listed record?
1. CC(=O)N(O)CCCCCNC(=O)CCC(=O)N(O)CCCCCNC(=O)CCC(=O)N(O)CCCCCN.C[S+](=O)([O-])O
2. Nc1ncnc2nc(-c3ccc(N4CCOCC4)nc3)cc(-c3cccc(Br)c3)c12

### Response
1: 9.06%; 2: 108%

* * *

# System: SEM cells
# assay-remarks: cell viability relative to DMSO control; higher = less cytotoxic
# measurement-parameters: RPMI 5 mM glucose + 10% FBS; 48 h; 5.12 µM
Exercise: for every item that follows, state its recorded cell viability.
One number for each entry, in %.

Worked cases, cell viability given:
[
  {
    "molecule": "CO[C@H]1C[C@@H]2CC[C@@H](C)[C@@](O)(O2)C(=O)C(=O)N2CCCC[C@H]2C(=O)O[C@H]([C@@H](C)C[C@@H]2CC[C@@H](O)[C@H](OC)C2)CC(=O)[C@H](C)/C=C(\\C)[C@@H](O)[C@@H](OC)C(=O)[C@H](C)C[C@H](C)/C=C/C=C/C=C/1C",
    "cell viability / %": 68
  },
  {
    "molecule": "Cc1nc(-c2ccc(-c3ccc(C(=O)N4CCc5cc6c(cc54)C4(CCN(C)CC4)CO6)cc3)c(C)c2)no1",
    "cell viability / %": 117
  },
  {
    "molecule": "CN(C)c1ccc(-c2nc3c(N4CCN(CC(=O)Nc5nccs5)CC4)c(Cl)cnc3[nH]2)cc1",
    "cell viability / %": 92.5
  }
]

We next turn to a different molecule, shown below.
### Prompt Looking for the measured cell viability of CCN1\C=C(C(O)=O)/C(=O)C2=C1C(=C(N3CCNC(C)C3)C(=C2)F)F (centres undefined) , can you help?
### Response 112

* * *

# Test system: SEM cells
# assay-remarks: AUC of viability dose-response curve (% viability x log10 dose units); higher = less sensitive
# measurement-parameters: HPLM + 10% dialyzed FBS; 48 h
measurement-kind: AUC of viability dose-response curve
One number for each entry.

[
  {
    "compound": "CCCCCN(C)CCC(O)(P(=O)([O-])O)P(=O)(O)O",
    "AUC of viability dose-response curve": 357
  },
  {
    "compound": "COCC(=O)NC/C=C/c1ccc2ncnc(Nc3ccc(Oc4ccc(C)nc4)c(C)c3)c2c1",
    "AUC of viability dose-response curve": 430
  },
  {
    "compound": "Cc1oncc1C(=O)Nc1ccc(C(F)(F)F)cc1",
    "AUC of viability dose-response curve": 471
  },
  {
    "compound": "CC1Cc2ccccc2N1NC(=O)c1ccc(Cl)c([S+](N)(=O)[O-])c1 (stereo not drawn)",
    "AUC of viability dose-response curve": 474
  },
  {
    "compound": "c1ccc2c(CCNc3ccc(Nc4ccncc4)cc3)c[nH]c2c1",
    "AUC of viability dose-response curve": 312
  },
  {
    "compound": "CC(C)CC(=O)Nc1n[nH]c2c1CN(C(=O)C1CCN(C)CC1)C2(C)C",
    "AUC of viability dose-response curve": 320
  },
  {
    "compound": "O=C(Nc1ccccc1)Nc1ccc(-c2ccc(C(=O)[C@@H]3CCC[C@H]3C(=O)O)cc2)cc1",
    "AUC of viability dose-response curve": 476
  },
  {
    "compound": "COC(=O)[C@H](Cc1ccccc1)NC(=O)[C@@H](N)CC(=O)O",
    "AUC of viability dose-response curve": 476
  },
  {
    "compound": "CCCC[S+](=N)([O-])CCC(N)C(=O)O (stereo not drawn)",
    "AUC of viability dose-response curve": 459
  },
  {
    "compound": "CC[C@H](C)C(=O)O[C@H]1C[C@@H](C)\\C=C2\\C=C/[C@H](C)[C@H](CC[C@@H]3C[C@@H](O)CC(=O)O3)[C@@H]12",
    "AUC of viability dose-response curve": 384
  }
]

Would you be so kind as to report AUC of viability dose-response curve for each listed record?
1. C[S+](=O)([O-])OCCCCO[S+](C)(=O)[O-]
2. Nc1ncnc2nc(-c3ccc(N4CCOCC4)nc3)cc(-c3cccc(Br)c3)c12
3. CNC(=O)c1nn(C)c2c1C(C)(C)Cc1cnc(Nc3ccc(N4CCN(C)CC4)cc3)nc1-2
4. COc1cccc(N(C)C(=S)Oc2ccc3c(c2)CCCC3)n1
5. O=c1oc2cc(O)ccc2s1
6. COC1=CC(c2cc3ccccc3[nH]2)=N/C1=C/c1[nH]c(C)cc1C
7. CCc1cnn2c(NCc3ccc[n+]([O-])c3)cc(N3CCCC[C@H]3CCO)nc12

### Response
440
470
269
389
462
436
206

Would you be so kind as to report AUC of viability dose-response curve for each listed record?
1. OC[C@H]1OC(O)C[C@@H](O)[C@@H]1O (stereo partly drawn)
2. COc1cc(C[C@@H](CO)[C@H](CO)Cc2ccc(O)c(OC)c2)ccc1O

### Response
1: 439; 2: 452

Would you be so kind as to report AUC of viability dose-response curve for each listed record?
1. OC1CCC(CC1)N2\C=N/C3=C(C2=N)C(=C([N]3CC4=CC=CC=C4)C5=CC=CC=C5)C6=CC=CC=C6 (stereo not drawn)
2. CN(C)CC(=O)N1CCC(CC1)C2=CC=C(NC(=O)C3=NC(=C[NH]3)C#N)C(=C2)\C4=C\CCCC4
3. CN1CCN2c3ccccc3Cc3ccccc3C2C1 (stereo not drawn)
4. COc1cccc2c1C(=O)c1c(O)c3c(c(O)c1C2=O)C[C@@](O)(C(=O)CO)C[C@@H]3O[C@H]1C[C@H](N)[C@@H](O)[C@H](C)O1
5. O=C(O)c1cccc(-c2noc(-c3ccccc3F)n2)c1
6. N=C1S/C(=C\c2ccc(-c3ccc4c(c3)C(=O)NC4=O)o2)C(=O)N1c1ccc(Br)cc1
7. NC(=O)N1CCC(CC(=O)N2CCC([C@H]3c4ncc(Br)cc4CCc4cc(Cl)cc(Br)c43)CC2)CC1

### Response
[329, 359, 467, 359, 454, 453, 363]
